All figures here come from patent US20210275641A1.

Target: T1, human high affinity trimeric IL-2 receptor (CD25/CD122/CD132) (human, UniProt P01589 22-272; P14784 27-551; P31785 23-369)
T1 sequence 1: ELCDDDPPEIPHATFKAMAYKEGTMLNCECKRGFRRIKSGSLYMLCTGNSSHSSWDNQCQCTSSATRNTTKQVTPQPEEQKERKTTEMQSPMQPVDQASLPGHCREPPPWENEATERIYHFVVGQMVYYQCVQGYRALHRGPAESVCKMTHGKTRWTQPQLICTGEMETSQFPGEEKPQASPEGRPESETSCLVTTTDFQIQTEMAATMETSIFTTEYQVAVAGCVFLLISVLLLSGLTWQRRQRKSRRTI
T1 sequence 2: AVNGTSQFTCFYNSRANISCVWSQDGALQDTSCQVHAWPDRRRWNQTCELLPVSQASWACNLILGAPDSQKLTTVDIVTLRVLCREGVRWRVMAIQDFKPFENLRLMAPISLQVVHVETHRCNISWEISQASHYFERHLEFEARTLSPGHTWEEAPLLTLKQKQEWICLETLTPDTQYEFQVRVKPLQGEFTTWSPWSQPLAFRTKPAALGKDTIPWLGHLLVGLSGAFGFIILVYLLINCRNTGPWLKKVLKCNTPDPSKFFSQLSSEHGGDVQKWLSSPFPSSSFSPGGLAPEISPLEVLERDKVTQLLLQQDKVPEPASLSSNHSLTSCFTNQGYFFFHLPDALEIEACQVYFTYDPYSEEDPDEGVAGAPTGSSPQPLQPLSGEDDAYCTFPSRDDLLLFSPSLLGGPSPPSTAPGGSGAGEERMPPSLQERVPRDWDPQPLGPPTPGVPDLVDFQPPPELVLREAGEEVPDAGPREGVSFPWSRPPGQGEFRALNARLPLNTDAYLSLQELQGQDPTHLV
T1 sequence 3: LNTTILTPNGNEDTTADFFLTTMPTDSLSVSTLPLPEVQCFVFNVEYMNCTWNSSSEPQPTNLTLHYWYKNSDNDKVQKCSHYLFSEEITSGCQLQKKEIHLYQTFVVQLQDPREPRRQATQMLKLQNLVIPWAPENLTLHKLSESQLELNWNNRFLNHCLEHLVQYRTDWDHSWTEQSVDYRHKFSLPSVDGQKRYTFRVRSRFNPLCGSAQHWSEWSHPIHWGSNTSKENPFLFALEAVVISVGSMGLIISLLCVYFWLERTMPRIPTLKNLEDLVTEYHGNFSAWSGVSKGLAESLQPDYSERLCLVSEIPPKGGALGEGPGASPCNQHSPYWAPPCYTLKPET
Assay: cell-based or functional assay
measured-quantity: pSTAT5 ratio YT CD25/YT, dilution factor 128, lower table

binder: RIH (ligand) cytokine: APTSSSTKKTQLQLEHLRLDLIMILNGINNYKNPKLTRMLTFKFYMPKKATELKHLQCLEEELKPLEEVLNLAQSKNFHLRPRDLISNINVIVLELKGSETTFMCEYADETATIVEFLNRWITFCHSIISTLT
numeric-value: 11.5
--
binder: RDH (ligand) cytokine: APTSSSTKKTQLQLEHLRLDLDMILNGINNYKNPKLTRMLTFKFYMPKKATELKHLQCLEEELKPLEEVLNLAQSKNFHLRPRDLISNINVIVLELKGSETTFMCEYADETATIVEFLNRWITFCHSIISTLT
numeric-value: 7
--
binder: TEH (ligand) cytokine: APTSSSTKKTQLQLEHLTLDLEMILNGINNYKNPKLTRMLTFKFYMPKKATELKHLQCLEEELKPLEEVLNLAQSKNFHLRPRDLISNINVIVLELKGSETTFMCEYADETATIVEFLNRWITFCHSIISTLT
numeric-value: 5.2
--
binder: RNH (ligand) cytokine: APTSSSTKKTQLQLEHLRLDLNMILNGINNYKNPKLTRMLTFKFYMPKKATELKHLQCLEEELKPLEEVLNLAQSKNFHLRPRDLISNINVIVLELKGSETTFMCEYADETATIVEFLNRWITFCHSIISTLT
numeric-value: 13
